Taken from patent US6852761B2.

Can you tell me pIC50 for the items I'm about to list?
Biological target: recombinant soluble tissue factor and recombinant human factor VIIa (TF-VIIA) (Homo sapiens, UniProt P08709)
Construct: conversion of coagulation factor VII to VIIa by Xa; (factor VIIa)
Sequence (P08709 213-466 limits assumed): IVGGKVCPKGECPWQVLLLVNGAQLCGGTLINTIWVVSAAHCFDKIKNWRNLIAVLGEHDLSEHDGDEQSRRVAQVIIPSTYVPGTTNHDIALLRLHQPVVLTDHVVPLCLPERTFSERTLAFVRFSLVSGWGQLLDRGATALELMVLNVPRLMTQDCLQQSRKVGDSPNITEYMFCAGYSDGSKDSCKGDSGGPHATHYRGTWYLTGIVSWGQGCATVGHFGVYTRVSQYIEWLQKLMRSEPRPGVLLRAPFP
Sequence (P08709 61-212 limits assumed): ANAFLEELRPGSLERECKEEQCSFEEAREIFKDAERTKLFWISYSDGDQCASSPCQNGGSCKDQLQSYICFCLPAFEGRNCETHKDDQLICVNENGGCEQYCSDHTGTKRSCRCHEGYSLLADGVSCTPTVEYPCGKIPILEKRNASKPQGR
Sequence (P13726 33-251 partner limits assumed): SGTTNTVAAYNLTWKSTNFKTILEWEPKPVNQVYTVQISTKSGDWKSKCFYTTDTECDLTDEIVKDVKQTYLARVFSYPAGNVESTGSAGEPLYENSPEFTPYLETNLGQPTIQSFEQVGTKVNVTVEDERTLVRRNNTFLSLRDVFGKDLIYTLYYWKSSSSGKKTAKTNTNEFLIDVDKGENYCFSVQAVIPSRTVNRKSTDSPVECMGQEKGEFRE
Assay: TF-VIIa Assay
pIC50: −log10 of the molar value.

Inquiry: Need pIC50, item "O=C(NCc1ccncc1)c1cc(NS(=O)(=O)Cc2ccccc2)ccc1Sc1ccccc1"
Reply text: < 4.52

Inquiry: Now try "O=C(NCC1CCNCC1)c1cc(NS(=O)(=O)Cc2ccccc2)ccc1Sc1ccccc1" .
Reply text: < 4.52

Inquiry: Now try "O=C(Cc1c(F)ccc(NS(=O)(=O)Cc2ccccc2)c1F)NCc1ccncc1" .
Reply text: < 4.52

Inquiry: Now try "O=C(Cc1c(F)ccc(NS(=O)(=O)Cc2ccccc2)c1F)NCC1CCNCC1" .
Reply text: < 4.52

###

Can you tell me pIC50 for the items I'm about to list?
Molecular target: human factor Xa (Homo sapiens, UniProt P00742)
Sequence (P00742 235-488 limits assumed): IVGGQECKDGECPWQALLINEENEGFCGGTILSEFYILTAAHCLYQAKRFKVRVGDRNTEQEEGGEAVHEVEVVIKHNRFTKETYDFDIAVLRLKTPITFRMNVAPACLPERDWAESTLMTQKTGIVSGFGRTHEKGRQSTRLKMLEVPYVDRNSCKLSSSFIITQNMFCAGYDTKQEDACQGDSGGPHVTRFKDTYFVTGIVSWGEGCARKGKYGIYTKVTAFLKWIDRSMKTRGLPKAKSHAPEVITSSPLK
Sequence (P00742 41-179 limits assumed): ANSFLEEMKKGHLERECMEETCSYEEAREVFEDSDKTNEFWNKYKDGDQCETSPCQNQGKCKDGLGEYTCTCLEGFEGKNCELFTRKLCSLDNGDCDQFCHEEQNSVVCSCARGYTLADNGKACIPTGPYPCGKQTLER
pIC50: −log10 of the molar value.

Inquiry: Need pIC50, item "N=C(N)c1ccc(CNC(=O)c2cc(NS(=O)(=O)Cc3ccccc3)ccc2Sc2ccccc2)cc1"
Reply text: < 4.52

Inquiry: Now try "CN(C)c1ccc(CNC(=O)c2cc(NS(=O)(=O)Cc3ccccc3)ccc2Sc2ccccc2)cc1" .
Reply text: < 4.52

Inquiry: Now try "N=C(N)c1ccc(CNC(=O)Cc2c(-c3ccccc3)ccc(NCCc3ccccc3)c2F)cc1" .
Reply text: < 4.52

Inquiry: Now try "N=C(N)c1ccc(CNC(=O)Cc2c(F)ccc(NS(=O)(=O)Cc3ccccc3)c2F)cc1" .
Reply text: < 4.52

Inquiry: Now try "N=C(N)c1ccc(CNC(=O)Cc2c(-c3ccccc3)ccc(NCCc3ccccc3)c2O)cc1" .
Reply text: < 4.52

Inquiry: Now try "COc1c(NC(C)C)ccc(-c2ccccc2)c1CC(=O)NCc1ccc(C(=N)N)cc1" .
Reply text: < 4.52
